TEST SUMMARY: Cytotoxicity against human THP1 macrophages after 48 hrs by Alamar Blue assay
Assay type: cell-based
MEASUREMENT SETUP: THP-1 macrophages
ASSAY METRIC: GI50 at 48 h (µM)
One number for each entry, in µM.

Some solved entries appear below for comparison.
[
  {
    "CPD SMILES": "COc1cc(C(=O)/C=C/c2ccc3c(c2)-c2[nH]c4ccc(C(C)(C)C)cc4c2CC(=O)N3)cc(OC)c1OC",
    "READOUT NUMBER": 14.7
  },
  {
    "CPD SMILES": "CC(C)(C)c1ccc2[nH]c3c(c2c1)CC(=O)Nc1ccc(/C=C/C(=O)Nc2cccc(Cl)c2)cc1-3",
    "READOUT NUMBER": 0.85
  }
]

Would you kindly look at the next entry?
Return reported GI50 at 48 h; argument: COc1ccc(C(=O)/C=C/c2ccc3c(c2)-c2[nH]c4ccc(C(C)(C)C)cc4c2CC(=O)N3)cc1OC
9.6

---

TEST SUMMARY: Cytotoxicity against human THP1 macrophages after 48 hrs by Alamar Blue assay
Assay type: cell-based
MEASUREMENT SETUP: THP-1 macrophages
Exercise: state measured log10(GI50 at 48 h) for each of the compounds provided.
Each number you see is log10 of GI50 at 48 h, and the unit inside the log is µM.

[
  {
    "CPD SMILES": "CC(C)(C)c1ccc2[nH]c3c(c2c1)CC(=O)Nc1ccc(/C=C/C(=O)Nc2ccccc2)cc1-3",
    "READOUT NUMBER": -0.47
  },
  {
    "CPD SMILES": "Cc1ccc(NC(=O)/C=C/c2ccc3c(c2)-c2[nH]c4ccc(C(C)(C)C)cc4c2CC(=O)N3)cc1",
    "READOUT NUMBER": 0.11
  },
  {
    "CPD SMILES": "COc1ccc(C(=O)/C=C/c2ccc3c(c2)-c2[nH]c4ccc(C(C)(C)C)cc4c2CC(=O)N3)cc1",
    "READOUT NUMBER": 1.51
  },
  {
    "CPD SMILES": "COc1ccc(C(=O)/C=C/c2ccc3c(c2)-c2[nH]c4ccc(C(C)(C)C)cc4c2CC(=O)N3)c(OC)c1",
    "READOUT NUMBER": 1.50
  },
  {
    "CPD SMILES": "CC(C)(C)c1ccc2[nH]c3c(c2c1)CC(=O)Nc1ccc(/C=C/C(=O)N2CCCCC2)cc1-3",
    "READOUT NUMBER": 0.79
  }
]

Could you report log10(GI50 at 48 h) for every entry in the following list?
1. CC(C)(C)c1ccc2[nH]c3c(c2c1)CC(=O)Nc1ccc(/C=C/C(=O)Nc2ccc(Cl)cc2)cc1-3
2. CC(C)(C)c1ccc2[nH]c3c(c2c1)CC(=O)Nc1ccc(/C=C/C(=O)NCc2ccccc2)cc1-3
3. CN(C)c1cccc(-c2ccc3c(c2)-c2[nH]c4ccc(C(C)(C)C)cc4c2CC(=O)N3)c1

1: -0.33; 2: -0.03; 3: 1.97

---

TEST SUMMARY: Selectivity index, ratio of GI50 for human THP1 macrophages to GI50 for blood stage of Trypanosoma brucei rhodesiense STIB 900
Lab note - cut at 8 for RatioGI50: true if strictly below, false if not.

As a guide, the following entries are already answered.
[
  {
    "CPD SMILES": "CC(C)(C)c1ccc2[nH]c3c(c2c1)CC(=O)Nc1ccc(/C=C/C(=O)c2cccs2)cc1-3",
    "QUALITATIVE LABEL": "true"
  },
  {
    "CPD SMILES": "CN(C)c1cccc(-c2ccc3c(c2)-c2[nH]c4ccc(C(C)(C)C)cc4c2CC(=O)N3)c1",
    "QUALITATIVE LABEL": "false"
  },
  {
    "CPD SMILES": "COc1ccc(C(=O)/C=C/c2ccc3c(c2)-c2[nH]c4ccc(C(C)(C)C)cc4c2CC(=O)N3)cc1",
    "QUALITATIVE LABEL": "true"
  },
  {
    "CPD SMILES": "Cc1ccc(NC(=O)/C=C/c2ccc3c(c2)-c2[nH]c4ccc(C(C)(C)C)cc4c2CC(=O)N3)cc1",
    "QUALITATIVE LABEL": "true"
  },
  {
    "CPD SMILES": "CC(C)(C)c1ccc2[nH]c3c(c2c1)CC(=O)Nc1ccc(-c2ccc(C(F)(F)F)cc2)cc1-3",
    "QUALITATIVE LABEL": "false"
  }
]

Threshold test, RatioGI50 < 8: CC(C)(C)c1ccc2[nH]c3c(c2c1)CC(=O)Nc1ccc(/C=C/C(=O)N2CCOCC2)cc1-3
true

Threshold test, RatioGI50 < 8: COc1cc(C(=O)/C=C/c2ccc3c(c2)-c2[nH]c4ccc(C(C)(C)C)cc4c2CC(=O)N3)cc(OC)c1OC
true

Threshold test, RatioGI50 < 8: COc1ccc(-c2ccc3c(c2)-c2[nH]c4ccc(C(C)(C)C)cc4c2CC(=O)N3)cc1
false

Threshold test, RatioGI50 < 8: COCCc1ccc(OCc2cccc(-c3ccc4c(c3)-c3[nH]c5ccc(C(C)(C)C)cc5c3CC(=O)N4)c2)cc1
true

Threshold test, RatioGI50 < 8: COc1ccc(OC)c(C(=O)/C=C/c2ccc3c(c2)-c2[nH]c4ccc(C(C)(C)C)cc4c2CC(=O)N3)c1
true

Threshold test, RatioGI50 < 8: COc1ccc(C(=O)/C=C/c2ccc3c(c2)-c2[nH]c4ccc(C(C)(C)C)cc4c2CC(=O)N3)cc1OC
true

Threshold test, RatioGI50 < 8: CC(C)(C)c1ccc2[nH]c3c(c2c1)CC(=O)Nc1ccc(/C=C/C(=O)c2ccccc2)cc1-3
true

Threshold test, RatioGI50 < 8: COc1ccc(C(=O)/C=C/c2ccc3c(c2)-c2[nH]c4ccc(C(C)(C)C)cc4c2CC(=O)N3)c(OC)c1
true

Threshold test, RatioGI50 < 8: CC(C)(C)c1ccc2[nH]c3c(c2c1)CC(=O)Nc1ccc(/C=C/C(=O)Nc2ccccc2)cc1-3
true

Threshold test, RatioGI50 < 8: CC(C)(C)c1ccc2[nH]c3c(c2c1)CC(=O)Nc1ccc(-c2ccc(N4CCOCC4)cc2)cc1-3
false

Threshold test, RatioGI50 < 8: CN1CCN(C(=O)/C=C/c2ccc3c(c2)-c2[nH]c4ccc(C(C)(C)C)cc4c2CC(=O)N3)CC1
true

Threshold test, RatioGI50 < 8: CC(C)(C)c1ccc2[nH]c3c(c2c1)CC(=O)Nc1ccc(/C=C/C(=O)c2cccnc2)cc1-3
false

Threshold test, RatioGI50 < 8: CC(C)(C)c1ccc2[nH]c3c(c2c1)CC(=O)Nc1ccc(/C=C/C(=O)Nc2ccc(Cl)cc2)cc1-3
true

Threshold test, RatioGI50 < 8: CC(C)(C)c1ccc2[nH]c3c(c2c1)CC(=O)Nc1ccc(/C=C/C(=O)NCc2ccccc2)cc1-3
true

---

TEST SUMMARY: Cytotoxicity against human THP1 macrophages after 48 hrs by Alamar Blue assay
Assay type: cell-based
MEASUREMENT SETUP: THP-1 macrophages
ASSAY METRIC: GI50 at 48 h (nM)
Give bare numbers, in nM.

Some solved entries appear below for comparison.
[
  {
    "CPD SMILES": "COc1ccc(OC)c(C(=O)/C=C/c2ccc3c(c2)-c2[nH]c4ccc(C(C)(C)C)cc4c2CC(=O)N3)c1",
    "READOUT NUMBER": 2200
  },
  {
    "CPD SMILES": "CC(C)(C)c1ccc2[nH]c3c(c2c1)CC(=O)Nc1ccc(/C=C/C(=O)c2ccco2)cc1-3",
    "READOUT NUMBER": 1300
  }
]

Would you kindly look at the next entry?
Return reported GI50 at 48 h; argument: CC(C)(C)c1ccc2[nH]c3c(c2c1)CC(=O)Nc1ccc(-c2ccc(C(F)(F)F)cc2)cc1-3
55100

---

TEST SUMMARY: Cytotoxicity against human THP1 macrophages after 48 hrs by Alamar Blue assay
Format: cell-based
MEASUREMENT SETUP: THP-1 macrophages
Exercise: state measured log10 GI50 at 48 h for each of the compounds provided.
Each number you see is log10 of GI50 at 48 h, and the unit inside the log is µM.

Some solved entries appear below for comparison.
[
  {
    "CPD SMILES": "COc1ccc(NC(=O)/C=C/c2ccc3c(c2)-c2[nH]c4ccc(C(C)(C)C)cc4c2CC(=O)N3)cc1",
    "ASSAY METRIC": "log10 GI50 at 48 h",
    "READOUT NUMBER": -0.44
  },
  {
    "CPD SMILES": "CC(C)(C)c1ccc2[nH]c3c(c2c1)CC(=O)Nc1ccc(/C=C/C(=O)c2ccccc2)cc1-3",
    "ASSAY METRIC": "log10 GI50 at 48 h",
    "READOUT NUMBER": 1.25
  },
  {
    "CPD SMILES": "CC(C)(C)c1ccc2[nH]c3c(c2c1)CC(=O)Nc1ccc(/C=C/C(=O)N2CCOCC2)cc1-3",
    "ASSAY METRIC": "log10 GI50 at 48 h",
    "READOUT NUMBER": 1.14
  },
  {
    "CPD SMILES": "CC(C)(C)c1ccc2[nH]c3c(c2c1)CC(=O)Nc1ccc(-c2ccc(N4CCOCC4)cc2)cc1-3",
    "ASSAY METRIC": "log10 GI50 at 48 h",
    "READOUT NUMBER": 1.90
  }
]

Return reported log10 GI50 at 48 h; argument: CC(C)(C)c1ccc2[nH]c3c(c2c1)CC(=O)Nc1ccc(/C=C/C(=O)c2cccs2)cc1-3
0.57
